experiment: chemical genetic growth profiling, strain panel (AID 1159580);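 also: tested at 20 µM; growth read once vehicle control cultures reached saturation at 30 °C; 1 = growth at the plate median or of vehicle wells; lower values mean less growth of the strain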; settings: S. cerevisiae deletion strains, growth OD, locus YOR061W, strain CKA2, stronger effect = lower value
About 2,000 (36%) of roughly 5,500 compounds were called active. Not shown: some 18% with an inconclusive outcome. Some of the results follow.
Measure Name: normalized growth
Would you mind answering with just the numeric figure?

Consider the worked cases shown below.
Molecule: Cc1ccc(S(=O)(=O)Nc2ccc(Oc3ccc(F)cc3)cc2)cc1
normalized growth: 0.898
//
Molecule: C=C1[C@H]2CC[C@@]3(C)[C@H](c4ccoc4)OC(=O)C[C@]13O[C@H]1C[C@H](O)C(C)(C)[C@H](CC(=O)OC)[C@]12C
normalized growth: 1
//
Molecule: C=C1C2CC[C@@]3(C)[C@H](c4ccoc4)OC(=O)C[C@]13O[C@H]1CC(O)C(C)(C)C(CC(=O)OC)[C@@]21C (stereo not given in full)
normalized growth: 1

The reported value for `O=c1cc(-c2ccccc2)oc2cc(O)c(O)c(O)c12` in terms of normalized growth is 0.545

The reported value for `COc1c2ccccc2nc2occc12` in terms of normalized growth is 0.962

The reported value for `Nc1cc(-c2ccncc2)c[nH]c1=O` in terms of normalized growth is 0.887

The reported value for `c1ccc2c(c1)CN1CCCC1=N2` in terms of normalized growth is 0.998

The reported value for `O=S(=O)(Nc1ccc(Oc2ccc(OC(F)(F)F)cc2)cc1)c1cccc(Cl)c1` in terms of normalized growth is 0.917

The reported value for `Cc1nc2sccn2c(=O)c1CCN1CCC(=C(c2ccc(F)cc2)c2ccc(F)cc2)CC1` in terms of normalized growth is 0.646

The reported value for `Cc1nc2ccccn2c(=O)c1CCN1CCC(C(=O)c2ccc(F)cc2)CC1` in terms of normalized growth is 1.02
